All values here come from PubChem BioAssay.

Experiment: small molecules captured by biotinylated probe aFST – biochemical, small-molecule microarray, fluorescence 635/667, stem cell growth factor project, primary screen (AID 1086);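 further: score merges 667 nm fluorescence with signal-to-noise of each printed compound spot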
Details: higher = more signal
Could you please report measured composite z-score for the items listed next?
The response must contain the number and no unit.

**Q:** Please look up its composite z-score: CCN(CC)c1ccc(N2CC=CC34O[C@@H]5/C=C\CCC(C)OC(=O)C5[C@H]3C(=O)N(CCCCCCO)[C@@H]4C2=O)cc1 (stereo partly specified)
**A:** -0.32

**Q:** Thanks! And C=CCN1Cc2ccccc2C[C@]2(N=C(c3ccc(OCCCO)cc3)O[C@@H]2c2ccccc2)C1=O ?
**A:** 0.607

**Q:** Thanks! And COCCOC(=O)N1C(=O)[C@@]2(c3cc(C#Cc4ccc(OC)cc4)ccc31)[C@H](c1ccc(OCCO)cc1)N1[C@H](c3ccccc3)[C@H](c3ccccc3)OC(=O)[C@H]1[C@@H]2C(=O)N1CCc2cc(OC)c(OC)cc2C1 ?
**A:** 0.225

**Q:** Thanks! And C=CCC(OC(C)=O)[C@@H]1[C@@H](N(Cc2cc3ccccc3o2)C(=O)c2cccc3ccccc23)c2cc(OCCCO)ccc2N1C(=O)Cc1ccc2ccccc2c1 (stereo partly specified) ?
**A:** 0.309

**Q:** Thanks! And CS(=O)(=O)CCOC(=O)C1=CC(c2ccc(CO)cc2)=CC(c2cccs2)N(Cc2cccc(OC(F)(F)F)c2)C=C1C(=O)OCCS(C)(=O)=O (stereo unspecified) ?
**A:** 1.14

**Q:** Thanks! And COc1ccccc1CN1C(=O)c2ccccc2[C@](Cc2ccccc2I)(C(=O)NCc2ccccc2)[C@@H]1c1ccc(CO)cc1 ?
**A:** 0.182

----------
Could you please report measured composite z-score for the items listed next?
Target: Calmodulin-1 (Homo sapiens) (UniProt P0DP23)
Assay: small molecules binding calmodulin-1 with EGTA – biochemical, small-molecule microarray, Cy5-labelled CALM1, profiling panel (AID 1111);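 further: labelled calmodulin applied in Tris saline Tween buffer holding calcium plus EGTA and DTT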
Conditions: Cy5-CALM1 binding fluorescence, higher = more signal
The response must contain the number and no unit.

**Q:** Recall the recorded composite z-score for O=C1O[C@H](c2ccccc2)[C@H](c2ccccc2)N2[C@H]1[C@@H](C(=O)NC[C@H](O)c1ccccc1)[C@]1(C(=O)Nc3ccc(C#CC4=CCCCC4)cc31)[C@H]2c1ccc(O)cc1 with Calmodulin-1 (Homo sapiens) (UniProt P0DP23) and state it.
**A:** 0.784

**Q:** Thanks! And [N-]=[N+]=Nc1ccccc1[C@H]1OC(c2ccc(OCCCO)cc2)=N[C@@]1(CCS(=O)(=O)c1ccccc1)C(=O)N1CCOCC1 ?
**A:** 2.15

**Q:** Thanks! And CC(C)[C@H]1COC(=O)N1C(=O)[C@H]1[C@@H](c2ccccc2)N(c2ccccc2)O[C@@H]1C ?
**A:** 0.35

**Q:** Thanks! And CS(=O)(=O)CCOC(=O)C1=CC(c2ccc(CO)cc2)=CC(c2cccs2)N(Cc2cccc(OC(F)(F)F)c2)C=C1C(=O)OCCS(C)(=O)=O (centres undefined) ?
**A:** 1.75

----------
Test system: Human papillomavirus type 1a E7 protein (residues 1-88)
Assay: HPV1a E7 small-molecule binders, primary screen, biochemical, small-molecule microarray, residues 1-88, 635 nm (AID 1129)
Conditions: small-molecule microarray binding, fluorescence 635 nm; higher = more signal
reportedEndpoint: composite z-score
The response must contain the number and no unit.

**Q:** Please look up its composite z-score: COCCOC(=O)N1C(=O)[C@@]2(c3ccccc31)[C@H](C(=O)N1CCCCCCC1)[C@H]1C(=O)O[C@H](c3ccccc3)[C@H](c3ccccc3)N1[C@@H]2c1ccccc1OCCO
**A:** 1.27

**Q:** Thanks! And O=C(NCC(O)CO)[C@@]1(Cc2ccccc2)N=C(c2ccc(OCCCO)cc2)O[C@H]1c1ccccc1 (stereo partly drawn) ?
**A:** 1.2

**Q:** Thanks! And CCN(CC)c1ccc(N2CC=CC34O[C@@H]5/C=C\CCC(C)OC(=O)C5[C@H]3C(=O)N(CCCCCCO)[C@@H]4C2=O)cc1 (stereo partly drawn) ?
**A:** -0.089

----------
Tested on: Wnt5a (protein binding on small-molecule microarray)
Experiment: small molecules binding Wnt5a protein – biophysical, small-molecule microarray, 635/667 nm fluorescence, primary screen (AID 1142);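 further: fluorescence read at 667 nm with signal to noise per printed feature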
Details: 635 nm fluorescence, higher = more signal
Could you please report measured composite z-score for the items listed next?
The response must contain the number and no unit.

**Q:** Please look up its composite z-score: CCOC(=O)C=Cc1cccc(OC)c1O
**A:** -0.811

**Q:** Thanks! And C=C(COC)C(=O)CC[C@@H](OC(=O)c1ccccc1-c1ccccc1C(=O)O)c1ccc(CO)o1 ?
**A:** 1.24

**Q:** Thanks! And O=C1C[C@@](C(=O)O)(c2ccc([N+](=O)[O-])cc2)[C@@H](c2ccc(CO)cc2I)N1C1CCCCC1 ?
**A:** 0.45

**Q:** Thanks! And CN(C)CCCCNC(=O)[C@@H]1C[C@@H]2C(=O)N[C@@H](CCCCN)C(=O)N2[C@@H]1c1cccc(OCCO)c1 ?
**A:** -0.157

**Q:** Thanks! And O=S(=O)(NCCCO)c1ccc(Br)cc1 ?
**A:** 0.191

**Q:** Thanks! And O=C1[C@H]2C=C(Br)[C@H](C[C@@H]2OCCOCCO)[C@@]12CO2 ?
**A:** 0.268

**Q:** Thanks! And CCOC(=O)C1=C[C@@H](C(C)(C)C)N(S(=O)(=O)c2ccc(C)cc2)[C@H]1c1ccc(Cl)c(Cl)c1 ?
**A:** 0.28

**Q:** Thanks! And CC1CC/C=C\[C@H]2OC34C=CCN(Cn5nnc6ccccc65)C(=O)[C@H]3N(CCCO)C(=O)[C@@H]4C2C(=O)O1 (stereo partly specified) ?
**A:** -0.595

**Q:** Thanks! And CCCC[C@H]1OB(O)C[C@H]2C1=C(COc1ccccc1)C[C@H]1C(=O)N(Cc3ccccc3)C(=O)[C@H]12 ?
**A:** -0.0155

**Q:** Thanks! And C#C[C@H]1Oc2ccccc2S(=O)(=O)N2CCC[C@@H]12 ?
**A:** -0.0713

**Q:** Thanks! And O=C1C2C=CC(C(O)C3CC=CCC3)N(n3cnnc3)C2C(=O)N1Cc1ccccc1 (stereo unspecified) ?
**A:** -0.149

**Q:** Thanks! And CCCNC(=O)[C@@]1(C)c2ccccc2C(=O)N(Cc2cc(F)cc(C(F)(F)F)c2)[C@H]1c1ccc(CO)cc1 ?
**A:** -0.283

**Q:** Thanks! And COC(=O)[C@@]1(Cc2ccc(OC)cc2)[C@H]2c3cc(C(=O)N(C)C)n(CCSCCO)c3C[C@H]2CN1C(=O)c1ccccc1 ?
**A:** 0.706

**Q:** Thanks! And O=C1O[C@H](c2ccccc2)[C@H](c2ccccc2)N2[C@H]1[C@@H](C(=O)Nc1nc3ccccc3s1)[C@]1(C(=O)Nc3ccc(C#CC4=CCCCC4)cc31)[C@H]2c1ccc(OCCO)cc1 ?
**A:** 0.706

**Q:** Thanks! And CCCC[C@H]1OB(O)C[C@H]2C1=C(C)Cn1c(=O)n(-c3ccccc3)c(=O)n12 ?
**A:** 0.0677

**Q:** Thanks! And Cc1ccc(S[C@]2(C(=O)NCC(C)C)CC(=O)N(Cc3ccccc3)[C@@H]2c2ccc(CO)cc2)cc1 ?
**A:** -0.405

**Q:** Thanks! And CCCC[C@@H]1C[C@H]1[C@@H](NC(=O)c1ccccc1)c1ccccc1 ?
**A:** 0.209

**Q:** Thanks! And CO[C@H]1O[C@H](CO)[C@@H](OC(=O)Nc2ccccc2-c2ccccc2)[C@H](OC(=O)Nc2ccccc2-c2ccccc2)[C@H]1OC(=O)Nc1ccccc1-c1ccccc1 ?
**A:** 0.764

**Q:** Thanks! And COCCOC(=O)N1C(=O)[C@@]2(c3ccccc31)[C@H](C(=O)N1CCCCCCC1)[C@H]1C(=O)O[C@H](c3ccccc3)[C@H](c3ccccc3)N1[C@@H]2c1ccccc1OCCO ?
**A:** 1.09

**Q:** Thanks! And COc1ccc([Si](C)(C)[C@H]2[C@H](CC(=O)N3CCC[C@H]3CO)O[C@@]3(C(=O)N(c4ccccc4)c4ccccc43)[C@@H]2C)cc1 ?
**A:** -0.154

**Q:** Thanks! And COc1ccc(C(O)C2C=CC3C(=O)N(c4ccccc4)C(=O)C3N2Nc2ccccc2)c2ccccc12 (stereo unspecified) ?
**A:** 0.145

**Q:** Thanks! And CCCCN1CC=CC23O[C@@H]4C=CCCOC(=O)C4[C@H]2C(=O)N(CCCO)[C@@H]3C1=O (stereo partly specified) ?
**A:** -0.148

**Q:** Thanks! And C=CCNC(=O)[C@H]1[C@@H]2C(=O)O[C@@H](c3ccccc3)[C@@H](c3ccccc3)N2[C@@H](c2ccc(OCCO)cc2)[C@]12C(=O)N(C(=O)OCCOC)c1ccc(C#CC3(O)CCCCCC3)cc12 ?
**A:** 0.558

**Q:** Thanks! And C=CCN1C(=O)[C@]2(COC(c3ccc(OCCCO)cc3)=N2)Cc2ccccc21 ?
**A:** 0.258

**Q:** Thanks! And C=C(/C(=C/C[C@@H](OC(C)=O)c1ccc(CO)o1)c1cnc2ccccc2c1)C(C)C ?
**A:** 1.3

**Q:** Thanks! And COCCCNC(=O)[C@@]1(Sc2ccc(C)cc2)CC(=O)N(Cc2ccccc2)[C@@H]1c1ccc(CO)cc1 ?
**A:** -0.114

**Q:** Thanks! And COCCOC(=O)N1C(=O)[C@@]2(c3cc(C#Cc4ccc(OC)cc4)ccc31)[C@H](C(N)=O)[C@H]1C(=O)O[C@H](c3ccccc3)[C@H](c3ccccc3)N1[C@@H]2c1ccc(O)cc1 ?
**A:** 0.115

**Q:** Thanks! And [N-]=[N+]=NCc1ccccc1C[C@]1(C(=O)NCC(O)CO)COC(c2ccc(OCCCO)cc2)=N1 (stereo partly specified) ?
**A:** 0.956

**Q:** Thanks! And CCOC(=O)C[C@H]1[C@H](OC(=O)c2ccc(C(=O)c3ccccc3)cc2)[C@@H](NC(=O)c2ccc3ccccc3n2)c2cc(OCCCO)ccc2N1C(=O)c1ccc2ccccc2n1 ?
**A:** 0.211

**Q:** Thanks! And O=c1cccc(-c2cccc3ccccc23)o1 ?
**A:** -0.0859

**Q:** Thanks! And O[C@@H](Cc1ccccc1)[C@@H](/C=C/c1ccccc1)NCc1ccccc1Br ?
**A:** -1.01
